Just for reference, a melting point compilation (Tetko et al.; mined from patent text by program, amines drawn as free bases though some values may be those of a salt) is where these values come from.

Entries and their melting point
MEASUREMENT KIND: melting point

MOLECULE | MEASUREMENT
CC(CO)n1nc(-c2cnc(N)nc2-c2ccccc2)ccc1=O (configuration not stated) | 222 to 223 °C
O=C(O)CCOc1ccccc1-c1nc(-c2ccccc2)no1 | 170 to 171 °C
COC(=O)CCc1cc2cc(Cl)ccc2n1S(=O)(=O)c1cccc2ccccc12 | 88 to 93 °C
O=C(O)C(=O)c1ccc(OCCOc2ccc(F)cc2)cc1 | 97 to 98 °C
CCCc1ccc(-c2ncc(C#N)c(Cl)n2)cc1 | 109 to 110 °C
N#Cc1ccc(NN)cc1F | 136 °C
Fc1ccc(Nc2nc3ccccc3o2)c(F)c1 | 115 to 117 °C
OC(CN1CCNC1=S)c1ccc(F)cc1 (configuration not stated) | 130 °C
Cc1cc2c(c3c1sc1ccc(O)cc13)C(=O)N(CCN(C)C)C2=O | 249 to 254 °C
Cn1c(=O)c2conc2n(-c2ccccc2)c1=O | 219 to 221 °C
COc1ccc2c(c1)cc(C(=O)Nc1nc(-c3cc(OC)c(C)cc3OC)c(CCC3CCCCC3)s1)n2CC(=O)O | 163 to 165 °C
CCCCC(=O)NC1CCN(CCNC(=O)c2nn(C(C)C)c3ccccc23)CC1 | 107 to 109 °C
